test: Test for oral administration (plasma concentration); assay type: in vivo; details: 1 mg/kg, monkey, fasted, 1 mg/2 mL/kg as free form in 0.5% methyl cellulose, plasma 0.5-24 h, HPLC/MS/MS
Structures can show the parent of a compound that is named as a salt.
ASSAY_ENDPOINT: AUC (ng·h/mL)

(I) O=CN1CC[C@H](NC(=O)C(=O)Nc2ccc(Cl)cn2)[C@H](NC(=O)c2nc3c(s2)COCC3)C1 [Example 38]
(II) COCC(=O)N1CC[C@H](NC(=O)C(=O)Nc2ccc(Cl)cn2)[C@H](NC(=O)c2nc3c(s2)CN(C)CC3)C1.Cl [Compound A, reference compound]
(III) CC(=O)N1CC[C@H](NC(=O)C(=O)Nc2ccc(Cl)cn2)[C@H](NC(=O)c2nc3c(s2)CN(C)CC3)C1 [Example 9, hydrochloride]
Request: Method: rank(items above, key=AUC, ascending=True) Answer by listing the labels in the requested order.
Response: II, III, I

====

biological target: human FXa (Homo sapiens)
Sequence (P00742 235-488 limits assumed): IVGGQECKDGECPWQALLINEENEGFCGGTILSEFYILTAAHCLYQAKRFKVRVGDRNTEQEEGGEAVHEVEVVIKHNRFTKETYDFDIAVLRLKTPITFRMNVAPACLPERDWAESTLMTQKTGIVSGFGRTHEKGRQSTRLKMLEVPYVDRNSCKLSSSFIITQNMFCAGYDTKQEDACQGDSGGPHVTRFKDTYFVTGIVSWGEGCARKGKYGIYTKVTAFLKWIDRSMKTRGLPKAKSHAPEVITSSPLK
Sequence (P00742 41-179 partner limits assumed): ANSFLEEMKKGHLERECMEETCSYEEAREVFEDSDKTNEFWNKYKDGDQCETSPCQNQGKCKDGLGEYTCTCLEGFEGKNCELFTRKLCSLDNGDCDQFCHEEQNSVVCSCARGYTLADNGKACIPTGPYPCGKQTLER
pIC50: −log10 of the molar value. Structures can show the parent of a compound that is named as a salt.
ASSAY_ENDPOINT: pIC50

// solved cases for pIC50 follow
Request: Fill blank: measured pIC50 of the molecule CC(=O)N1CC[C@H](NC(=O)C(=O)Nc2ccc(Cl)cn2)[C@H](NC(=O)c2nc3c(s2)CN(C)CC3)C1 [Example 9, hydrochloride] is ____.
Response: 8.80

Request: What measured pIC50 goes with COCC(=O)N1CC[C@H](NC(=O)C(=O)Nc2ccc(Cl)cn2)[C@H](NC(=O)c2nc3c(s2)CN(C)CC3)C1.Cl [Compound A, hydrochloride, reference compound] ?
Response: 8.64

Request: Which pIC50 value is on record for O=CN1CC[C@H](NC(=O)C(=O)Nc2ccc(Cl)cn2)[C@H](NC(=O)c2nc3c(s2)COCC3)C1 [Example 38] ?
Response: 8.52

(I) CN1CCc2nc(C(=O)N[C@@H]3CN(C=O)CC[C@@H]3NC(=O)C(=O)Nc3ccc(Cl)cn3)sc2C1 [Example 8, hydrochloride]
(II) CN1CCc2nc(C(=O)N[C@@H]3CN(C=O)CC[C@@H]3NC(=O)C(=O)Nc3ccc(Cl)s3)sc2C1 [Example 23, hydrochloride]
Request: Kindly identify the item with the lower pIC50 figure among these two: I and II Response format: the label of the selected entry.
Response: I

====

Test system: Human blood plasma
Test: Determination of prothrombin time (PT)
Type: biochemical
Conditions: concentration at which PT is doubled, Thromboplastin C Plus, linear regression
Procedure: Determination of Prothrombin Time (PT) Human blood plasma (50 μl) was added to 50 μl of each test compound dissolved in 4% DMSO/physiological saline, and the mixture was pre-incubated at 37° C. for 1 minute. Subsequently, 100 μl of 0.5 U/ml Thromboplastin C Plus (Dade Behring) was added to initiate the reaction. The coagulation time was measured using Amelung KC-10A micro coagulometer (MC Medical). […] The concentration at which PT is doubled (PTCT2) was calculated by linear regression.
Structures can show the parent of a compound that is named as a salt.
Quick reference for PTCT2 among some compounds
Write it as a number; the unit µM goes unstated.

As a guide, the following entries are already answered.
Request: Name the reported PTCT2 value associated with the compound CC(=O)N1CC[C@H](NC(=O)C(=O)Nc2ccc(Cl)cn2)[C@H](NC(=O)c2nc3c(s2)CN(C)CC3)C1 [Example 9, hydrochloride]
Response: 0.25

Request: Query (compound): O=CN1CC[C@H](NC(=O)C(=O)Nc2ccc(Cl)cn2)[C@H](NC(=O)c2nc3c(s2)COCC3)C1 ; field requested: PTCT2
Response: 0.50

Request: What measured PTCT2 goes with CN1CCc2nc(C(=O)N[C@@H]3CN(C=O)CC[C@@H]3NC(=O)C(=O)Nc3ccc(Cl)cn3)sc2C1 [Example 8, hydrochloride] ?
Response: 0.26

---
Request: Query: PTCT2; subject: COCC(=O)N1CC[C@H](NC(=O)C(=O)Nc2ccc(Cl)cn2)[C@H](NC(=O)c2nc3c(s2)CN(C)CC3)C1.Cl [Compound A, reference compound]
Response: 0.37

Request: Please look up its PTCT2: CN1CCc2nc(C(=O)N[C@@H]3CN(C=O)CC[C@@H]3NC(=O)C(=O)Nc3ccc(Cl)s3)sc2C1 [Example 23, hydrochloride]
Response: 0.14

Cited source: patent US8088796B2
